Item-by-item account of melting point

COc1ccc(N2CCN(c3cc(O)c([N+](=O)[O-])cc3F)CC2)cc1 yielded melting point of 202 to 204 °C

COc1ccc(N2CCN(c3cc4oc(C)nc4cc3F)CC2)cc1 yielded melting point of 156 to 157 °C

More entries:
O=[N+]([O-])c1cc(F)c(N2CCN(c3ccc(O)cc3)CC2)cc1O yielded melting point of 218 to 219 °C

---

assay: CellTiter-Glo luminescent cell viability (cytotoxicity) assay on hepatocytes; type: cell-based, human; details: human; Liver cells, hepatocytes (HepaRG); 10 µM; 24 h; vs DMSO vehicle
Item-by-item account of viability at 24 h, 10 µM
Quick note: give the figure in %, leave out the unit.

Cc1nc2cc(F)c(N3CCN(c4ccc(F)cc4)CC3)cc2o1 [Compound 7d] yielded viability at 24 h, 10 µM of 85

COc1cccc(N2CCN(c3cc(O)c([N+](=O)[O-])cc3F)CC2)c1 [Compound 6i] yielded viability at 24 h, 10 µM of 99

O=[N+]([O-])c1cc(F)c(N2CCN(c3ccccc3O)CC2)cc1O [Compound 6f] yielded viability at 24 h, 10 µM of 110

More entries:
Cc1ccc(N2CCN(c3cc4oc(C)nc4cc3F)CC2)cc1 [Compound 7b] yielded viability at 24 h, 10 µM of 91

O=[N+]([O-])c1cc(F)c(N2CCN(c3ccccc3F)CC2)cc1O [Compound 6g] yielded viability at 24 h, 10 µM of 112

O=[N+]([O-])c1cc(F)c(N2CCN(c3ccccc3)CC2)cc1O [Compound 6a] yielded viability at 24 h, 10 µM of 112

Cc1nc2cc(F)c(N3CCN(c4cccc(O)c4)CC3)cc2o1 [Compound 7h] yielded viability at 24 h, 10 µM of 99

Cc1nc2cc(F)c(N3CCN(c4ccc(Cl)c(Cl)c4)CC3)cc2o1 [Compound 7j] yielded viability at 24 h, 10 µM of 85

COc1ccc(N2CCN(c3cc(O)c([N+](=O)[O-])cc3F)CC2)cc1 [Compound 6e] yielded viability at 24 h, 10 µM of 104

COc1ccc(N2CCN(c3cc4oc(C)nc4cc3F)CC2)cc1 [Compound 7e] yielded viability at 24 h, 10 µM of 91

O=[N+]([O-])c1cc(F)c(N2CCN(c3ccc(O)cc3)CC2)cc1O [Compound 6c] yielded viability at 24 h, 10 µM of 110

---

test: CellTiter-Glo luminescent cell viability (cytotoxicity) assay on hepatocytes; format: cell-based, human; settings: human; Liver cells, hepatocytes (HepaRG); 50 µM; 24 h; vs DMSO vehicle
quantity-measured: viability at 24 h, 50 µM (%)
Quick note: give the figure in %, leave out the unit.

Cc1ccc(N2CCN(c3cc(O)c([N+](=O)[O-])cc3F)CC2)cc1 yielded viability at 24 h, 50 µM of 97

O=[N+]([O-])c1cc(F)c(N2CCN(c3cccc(O)c3)CC2)cc1O yielded viability at 24 h, 50 µM of 83

COc1ccc(N2CCN(c3cc(O)c([N+](=O)[O-])cc3F)CC2)cc1 yielded viability at 24 h, 50 µM of 74

O=[N+]([O-])c1cc(F)c(N2CCN(c3ccc(O)cc3)CC2)cc1O yielded viability at 24 h, 50 µM of 101

O=[N+]([O-])c1cc(F)c(N2CCN(c3ccccc3)CC2)cc1O yielded viability at 24 h, 50 µM of 90

More entries:
O=[N+]([O-])c1cc(F)c(N2CCN(c3ccc(F)cc3)CC2)cc1O yielded viability at 24 h, 50 µM of 57

O=[N+]([O-])c1cc(F)c(N2CCN(c3ccc(Cl)c(Cl)c3)CC2)cc1O yielded viability at 24 h, 50 µM of 102

Cc1nc2cc(F)c(N3CCN(c4ccc(O)cc4)CC3)cc2o1 yielded viability at 24 h, 50 µM of 93

O=[N+]([O-])c1cc(F)c(N2CCN(c3ccccc3O)CC2)cc1O yielded viability at 24 h, 50 µM of 76

Cc1nc2cc(F)c(N3CCN(c4ccccc4O)CC3)cc2o1 yielded viability at 24 h, 50 µM of 59

Cc1nc2cc(F)c(N3CCN(c4ccc(Cl)c(Cl)c4)CC3)cc2o1 yielded viability at 24 h, 50 µM of 65

---

Item-by-item account of melting point

O=[N+]([O-])c1cc(F)c(N2CCN(c3ccccc3O)CC2)cc1O yielded melting point of 176 to 178 °C

Cc1ccc(N2CCN(c3cc4oc(C)nc4cc3F)CC2)cc1 yielded melting point of 168 to 170 °C

O=[N+]([O-])c1cc(F)c(N2CCN(c3ccccc3)CC2)cc1O yielded melting point of 197 to 198 °C

Cc1nc2cc(F)c(N3CCN(c4ccc(F)cc4)CC3)cc2o1 yielded melting point of 148 to 150 °C

Cc1nc2cc(F)c(N3CCN(c4ccccc4O)CC3)cc2o1 yielded melting point of 172 to 173 °C

More entries:
O=[N+]([O-])c1cc(F)c(N2CCN(c3ccc(Cl)c(Cl)c3)CC2)cc1O yielded melting point of 211 to 213 °C

O=[N+]([O-])c1cc(F)c(N2CCN(c3cccc(O)c3)CC2)cc1O yielded melting point of 207 to 208 °C

Cc1nc2cc(F)c(N3CCN(c4ccccc4F)CC3)cc2o1 yielded melting point of 157 to 158 °C

Cc1nc2cc(F)c(N3CCN(c4ccc(Cl)c(Cl)c4)CC3)cc2o1 yielded melting point of 147 to 148 °C

---

assay: CellTiter-Glo luminescent cell viability (cytotoxicity) assay on hepatocytes; type: cell-based, human; conditions: human; Liver cells, hepatocytes (HepaRG); 0.1 µM; 24 h; vs DMSO vehicle
quantity-measured: viability at 24 h, 0.1 µM (%)
Quick note: give the figure in %, leave out the unit.

Look over these answered cases.
Cc1ccc(N2CCN(c3cc(O)c([N+](=O)[O-])cc3F)CC2)cc1 yielded viability at 24 h, 0.1 µM of 107

Cc1nc2cc(F)c(N3CCN(c4ccc(O)cc4)CC3)cc2o1 yielded viability at 24 h, 0.1 µM of 98

Cc1nc2cc(F)c(N3CCN(c4ccccc4F)CC3)cc2o1 yielded viability at 24 h, 0.1 µM of 96

Cc1nc2cc(F)c(N3CCN(c4ccccc4)CC3)cc2o1 yielded viability at 24 h, 0.1 µM of 101

More entries:
COc1cccc(N2CCN(c3cc4oc(C)nc4cc3F)CC2)c1 yielded viability at 24 h, 0.1 µM of 100

COc1cccc(N2CCN(c3cc(O)c([N+](=O)[O-])cc3F)CC2)c1 yielded viability at 24 h, 0.1 µM of 79

---

Item-by-item account of viability at 24 h, 1 µM
experiment: CellTiter-Glo luminescent cell viability (cytotoxicity) assay on hepatocytes; assay type: cell-based, human; conditions: human; Liver cells, hepatocytes (HepaRG); 1 µM; 24 h; vs DMSO vehicle
Quick note: give the figure in %, leave out the unit.

O=[N+]([O-])c1cc(F)c(N2CCN(c3ccc(O)cc3)CC2)cc1O yielded viability at 24 h, 1 µM of 101

O=[N+]([O-])c1cc(F)c(N2CCN(c3ccc(F)cc3)CC2)cc1O yielded viability at 24 h, 1 µM of 87

Cc1nc2cc(F)c(N3CCN(c4ccccc4O)CC3)cc2o1 yielded viability at 24 h, 1 µM of 97

Next compound, viability at 24 h, 1 µM to be filled in.
COc1ccc(N2CCN(c3cc4oc(C)nc4cc3F)CC2)cc1 yielded viability at 24 h, 1 µM of 108

---

experiment: CellTiter-Glo luminescent cell viability (cytotoxicity) assay on hepatocytes; format: cell-based, human; conditions: human; Liver cells, hepatocytes (HepaRG); 250 µM; 24 h; vs DMSO vehicle
quantity-measured: viability at 24 h, 250 µM (%)
Quick note: give the figure in %, leave out the unit.

Look over these answered cases.
O=[N+]([O-])c1cc(F)c(N2CCN(c3ccc(F)cc3)CC2)cc1O yielded viability at 24 h, 250 µM of 44

Cc1nc2cc(F)c(N3CCN(c4ccccc4O)CC3)cc2o1 yielded viability at 24 h, 250 µM of 53

Next compound, viability at 24 h, 250 µM to be filled in.
Cc1nc2cc(F)c(N3CCN(c4ccc(Cl)c(Cl)c4)CC3)cc2o1 yielded viability at 24 h, 250 µM of 7

---

Test system: A-549 lung carcinoma cells
Experiment: CellTiter-Glo luminescent cell viability (cytotoxicity) assay on lung cancer cells
Format: cell-based, human
Conditions: Homo sapiens, A549; Lung cancer cells (A-549); 100 µM; 24 h; vs DMSO vehicle
Description: The cytotoxicity of prepared benzoxazoles (7a–j) and intermediates (6a–j and 9) were measured by applying the CellTiter-Glo® luminescent cell proliferation assay (G755A, Promega, Madison, WI, USA). This method permits the determination of viable cells numbers in the culture based on quantitation of the ATP present, which denotes the presence of metabolically active cells. […]
quantity-measured: viability at 100 µM (%)
Quick note: give the figure in %, leave out the unit.

Look over these answered cases.
O=[N+]([O-])c1cc(F)c(N2CCN(c3ccc(F)cc3)CC2)cc1O yielded viability at 100 µM of 54

Cc1nc2cc(F)c(N3CCN(c4cccc(O)c4)CC3)cc2o1 yielded viability at 100 µM of 90

COc1cccc(N2CCN(c3cc4oc(C)nc4cc3F)CC2)c1 yielded viability at 100 µM of 75

COc1ccc(N2CCN(c3cc4oc(C)nc4cc3F)CC2)cc1 yielded viability at 100 µM of 68

Cc1ccc(N2CCN(c3cc4oc(C)nc4cc3F)CC2)cc1 yielded viability at 100 µM of 75

Cc1nc2cc(F)c(N3CCN(c4ccc(O)cc4)CC3)cc2o1 yielded viability at 100 µM of 83

Cc1nc2cc(F)c(N3CCN(c4ccccc4O)CC3)cc2o1 yielded viability at 100 µM of 95

O=[N+]([O-])c1cc(F)c(N2CCN(c3ccccc3)CC2)cc1O yielded viability at 100 µM of 58

Next compound, viability at 100 µM to be filled in.
Cc1nc2cc(F)c(N3CCN(c4ccc(Cl)c(Cl)c4)CC3)cc2o1 yielded viability at 100 µM of 47

Just for reference, paper PMC6274350 is where these values come from.
